- Test system: Aspergillus niger
- measurement_notes: Antifungal activity against Aspergillus niger at 25 ug/ml after 48 hrs by agar well diffusion method
- Type: functional
- experimental_context: read-out: DIZ
measured_metric: zone of inhibition at 25 µg/mL (mm)
// return numeric value only (unit: mm, not printed)

Answered examples (2):
Cc1cccc2nc(N/N=C/c3ccc([N+](=O)[O-])cc3)sc12 | 6
Cc1cccc2nc(N/N=C/c3ccco3)sc12 | 10

Request: Quick one: zone of inhibition at 25 µg/mL of COc1cc(/C=N/Nc2nc3cccc(C)c3s2)cc(OC)c1OC ?
Response: 9

Request: State the recorded zone of inhibition at 25 µg/mL for this entry: COc1ccc(/C=N/Nc2nc3cccc(C)c3s2)cc1Br
Response: 8

Attribution: ChEMBL document CHEMBL4020788
